# assay-summary: qHTS RealTime-Glo MT Cell Viability Assay in HepG2 cells - 24 hour (AID 1224867); further: nearly all actives have a fitted effect of over 50% in size
# measurement-conditions: RealTime-Glo luminescence; series mostly up to 76.8 µM
Inconclusive results are not listed. The source made the active and inactive calls. The call rests on the fitted dose curve; in most records, active means well fitted cell-killing curve with a large enough effect in the repeat runs; inconclusive means weak or mixed curves; inactive means flat fitted curve, though single readings scatter.
property-name: activity change, negative = cytotoxicity

Sample records with activity change, negative = cytotoxicity:
INSERT INTO assay_data (molecule, property_name, reported_value) VALUES
  ('CCC1COC(=O)O1 (stereo not given)', 'activity change, negative = cytotoxicity', 'inactive'),
  ('O=C1OC(=O)c2ccccc21', 'activity change, negative = cytotoxicity', 'inactive'),
  ('CCC(=O)c1ccc(O)cc1', 'activity change, negative = cytotoxicity', 'inactive'),
  ('COc1cc2c3cc1Oc1cc(ccc1O)C[C@@H]1c4c(cc(OC)c(O)c4Oc4ccc(cc4)C[C@@H]3N(C)CC2)CC[N+]1(C)C', 'activity change, negative = cytotoxicity', 'inactive'),
  ('CC(=O)OCCCc1ccccc1', 'activity change, negative = cytotoxicity', 'inactive');

stdin: Would you kindly share the measured activity change, negative = cytotoxicity for COc1cc(C=O)ccc1OC(=O)C(C)C ?
stdout: inactive

stdin: Try this molecule too: Cc1ccccc1C(=O)N1CC/C(=N\OS(=O)(=O)O)c2ccc(Cl)cc21
stdout: inactive

stdin: Try this molecule too: CCC(C)(CCC(C)C)C(=O)[O-].CCC(C)(CCC(C)C)C(=O)[O-].[Zn+2] (stereo not given)
stdout: inactive

stdin: Try this molecule too: CCN(CCO)c1cccc(C)c1
stdout: inactive

stdin: Try this molecule too: FC(F)(F)c1ccc(Cl)cc1Cl
stdout: inactive

Attribution: PubChem BioAssay (Tox21)
